Values from ChEMBL document CHEMBL1131255

# target_entity: 5-hydroxytryptamine receptor 1D (Homo sapiens, UniProt P28221)
# Sequence (P28221 whole entry): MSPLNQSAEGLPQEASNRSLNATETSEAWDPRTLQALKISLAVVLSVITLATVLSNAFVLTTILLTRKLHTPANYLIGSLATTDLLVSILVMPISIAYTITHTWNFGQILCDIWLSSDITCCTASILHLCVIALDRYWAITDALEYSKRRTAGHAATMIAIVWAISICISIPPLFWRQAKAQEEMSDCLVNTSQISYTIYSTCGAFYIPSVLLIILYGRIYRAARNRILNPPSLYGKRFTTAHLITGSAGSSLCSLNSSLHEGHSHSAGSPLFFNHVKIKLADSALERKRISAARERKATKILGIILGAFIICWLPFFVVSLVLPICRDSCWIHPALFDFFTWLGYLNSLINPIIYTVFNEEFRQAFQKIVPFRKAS
Simple rule here: Ki less than 2000 nM is label 1, otherwise label 0.

> print(dat)
                                mol  class.assignment
 1            CCc1ccc(CC2=NCCN2)cc1           label 0
 2     Cc1cc(C(C)C)cc(C)c1CC1=NCCN1           label 1
 3       Cc1cc(C)c(CC2=NCCN2)c(C)c1           label 1
 4        Cc1cc(C(C)(C)C)cc(C)c1CCN           label 1
 5         Cc1ccc(O)c(C)c1CC1=NCCN1           label 1
 6       CNCCc1c(C)cc(C(C)(C)C)cc1C           label 0
 7          CCCCc1ccc(CC2=NCCN2)cc1           label 0
 8  O=[N+]([O-])c1ccc(CC2=NCCN2)cc1           label 0
 9            Brc1ccc(CC2=NCCN2)cc1           label 0
10             Oc1cccc(CC2=NCCN2)c1           label 0
11            Cc1cccc(C)c1CC1=NCCN1           label 0
12             Nc1ccc(CC2=NCCN2)cc1           label 0
13   c1ccc(-c2ccc(CC3=NCCN3)cc2)cc1           label 0
14           CCCc1ccc(CC2=NCCN2)cc1           label 0
15         Cc1ccc(CC2=NCCN2)c(C)c1O           label 1
